B1: glmS ribozyme (parent)
chain: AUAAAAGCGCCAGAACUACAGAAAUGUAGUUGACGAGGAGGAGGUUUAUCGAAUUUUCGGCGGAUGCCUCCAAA

Variants of: B1
Test: self-cleavage kobs at 640 uM GlcN6P; higher = faster cleavage; RNA array
Details: with glucosamine-6-phosphate
This sample holds only a part of the variants without activity.
READOUT TYPE: self-cleavage kobs at 640 uM GlcN6P

Need self-cleavage kobs at 640 uM GlcN6P, item C16G G51U U56C C70U
< 1e-05 s⁻¹

Need self-cleavage kobs at 640 uM GlcN6P, item G41C A48G G63U
< 1e-05 s⁻¹

Need self-cleavage kobs at 640 uM GlcN6P, item A33C U47G
8.08e-05 s⁻¹

Reference source for all entries: the supplement of paper PMC7125110
